Recorded growth values for a group of compounds are listed next.
- Tested on: NCI-H23 lung
- assay procedure: NCI-60 one-dose screen, 48 h (100 = growth as untreated, 0 = no growth, -100 = all killed)
- protocol conditions: 10 µM unless noted
The panel holds about 83,000 compounds, 20% with a hit somewhere; the sample as a whole holds those more often. Active and inactive are the calls of the source. The calls were made as follows: active = growth percent below 10; inactive = the rest.

// below: answered compounds
COc1ccc([C@H]2[C@H](O)C(=O)N2c2cc(OC)c(OC)c(OC)c2)cc1
12.6% (inactive)
N/C(=N\OC(=O)CSc1nc2ccccc2s1)c1ccc2ccccc2c1
95.3% (inactive)
COc1ccc(CCN2C(=O)/C(=C/c3nc(CO)cs3)SC2=S)cc1
86.7% (inactive)

Could you share which growth value was measured for CS(=O)c1nccc(-c2c(-c3ccc(F)c(OCCc4ccccc4)c3)nc3sccn23)n1 (stereo not given) ?
86.1% (inactive)

---

- Test system: HOP-62 NSCLC
- assay procedure: NCI-60 one-dose screen, 48 h (100 = growth as untreated, 0 = no growth, -100 = all killed)
- protocol conditions: 10 µM unless noted
- Method: Growth inhibition of the HOP-62 human Non-Small Cell Lung tumor cell line is measured as a screen for anti-cancer activity. Cells are grown in 96 well plates and exposed to the test compound for 48 hours. Compounds are tested at a single concentration, which is 10^-5 M for most compounds. The reported endpoint is percent growth (GI% or GIPRCNT), where numbers from 0 - 100% represent growth inhibition, and numbers from -100% - 0 represent cell death. […]
This is part of a sample that, as a whole, favours compounds with a hit. Of some 83,000 tested, about 20% had one in any assay. Activity calls are given as the source filed them. Rule for the calls: active = growth percent below 10; inactive = the rest.
assay endpoint: growth

C#C[C@]1(O)CC[C@H]2[C@@H]3CC=C4c5sc(C6CCOCC6)nc5CC[C@]4(C)[C@H]3CC[C@@]21C
90.5% (inactive)
COc1ccc(-c2nn(-c3ccccc3)cc2/C=C/C(=O)c2ccc(NC(=O)CCCCCCC(=O)NO)cc2)cc1
107% (inactive)
Fc1ccccc1/C=C(/C1=NCCN1)n1cnc2ccccc21
106% (inactive)

# get_value(readout='growth', item= O=C(Nc1cc(F)cc2cccnc12)c1cnc(N2CCOCC2)cn1 )
87.3% (inactive)

Look up growth: CC1=CC(=O)CC(C)(C)[C@@]1(O)/C=C/C(C)=C\C(=O)O
-41.6% (active)

Record request: growth value, item CNC(=O)c1cc(Oc2ccc3nc(NC(=O)c4ccc(CN5CCN(C)CC5)c(C(F)(F)F)c4)sc3c2)ccn1
73.5% (inactive)

Give its growth value. Item: CCCCCCNC(=O)Oc1ccc(/C(=C(\C)c2ccc(OC)cc2)c2ccc(OCCN(C)C)cc2)cc1
89.8% (inactive)

Fill blank: measured growth of the compound CN1CCN(c2nc(-c3cnc4ccccc4n3)cc3ccccc23)CC1 is ____.
95.9% (inactive)

Param item = Clc1ccc(-c2nc3ccc(/C(=N\N=C\c4ccccc4)c4ccccc4)cc3[nH]2)cc1 ; retrieve measured growth.
111% (inactive)

---

- Tested on: MDA-MB-435 melanoma
- assay procedure: NCI-60 one-dose screen, 48 h (100 = growth as untreated, 0 = no growth, -100 = all killed)
- protocol conditions: 10 µM unless noted
The panel holds about 83,000 compounds, 20% with a hit somewhere; the sample as a whole holds those more often.
Binary call on growth: class 1 from 90% upward, class 0 beneath that.

Some solved cases for reference:
COc1ccc([C@H]2[C@H](O)C(=O)N2c2cc(OC)c(OC)c(OC)c2)cc1Cl
class 0
Cc1cc(C(=O)Nc2ccc(SC#N)cc2)c(C)o1
class 1
CCCCCCNC(=O)Oc1ccc(/C(=C(/C)c2ccc(Cl)cc2)c2ccc(OCCN3CCCC3)cc2)cc1
class 0
COC1=C(c2ccccc2)C(=O)C(OC)=C(c2ccccc2)C1=O
class 1

Turning now to a further record.
Evaluate Brc1cccc(/C=N/Nc2nc(N/N=C/c3cccc(Br)c3)nc(N3CCOCC3)n2)c1 : growth at minimum 90%?
class 0

Reference for the values: PubChem BioAssay (NCI)
